target-of-assay: T1, human LIV-1 (human, UniProt Q13433 29-755)
T1 sequence (looked up): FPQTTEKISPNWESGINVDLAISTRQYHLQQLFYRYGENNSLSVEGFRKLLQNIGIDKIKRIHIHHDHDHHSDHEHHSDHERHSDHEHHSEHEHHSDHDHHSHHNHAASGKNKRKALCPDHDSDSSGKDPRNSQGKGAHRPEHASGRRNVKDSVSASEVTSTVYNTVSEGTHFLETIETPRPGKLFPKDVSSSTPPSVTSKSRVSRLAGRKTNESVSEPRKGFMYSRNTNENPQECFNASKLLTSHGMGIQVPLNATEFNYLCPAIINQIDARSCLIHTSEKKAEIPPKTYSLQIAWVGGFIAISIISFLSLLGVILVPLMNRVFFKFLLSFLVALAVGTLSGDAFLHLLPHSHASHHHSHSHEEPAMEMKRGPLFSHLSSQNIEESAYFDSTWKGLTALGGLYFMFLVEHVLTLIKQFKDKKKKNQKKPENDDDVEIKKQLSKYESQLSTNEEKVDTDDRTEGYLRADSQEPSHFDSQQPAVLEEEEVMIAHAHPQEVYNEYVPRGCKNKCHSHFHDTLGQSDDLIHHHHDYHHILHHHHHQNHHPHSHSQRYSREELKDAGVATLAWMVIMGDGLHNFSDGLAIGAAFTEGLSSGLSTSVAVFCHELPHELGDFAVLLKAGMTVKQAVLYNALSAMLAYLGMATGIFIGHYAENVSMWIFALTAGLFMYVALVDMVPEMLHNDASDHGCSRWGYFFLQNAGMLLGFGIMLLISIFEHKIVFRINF
test-summary: cell-based or functional assay
ADCC reporter Top (RFU): recorded values
parameter-measured: ADCC reporter Top (RFU)

• 69B3D6 (antibody, V domains shown, Tested as chimeric antibody) VH: QVQLQQSGPELVKPGASVRISCKASGYTFTSYHMHWVKQRPGQGLEWIGWIYPGNVKNQSNEKFKGKATLTADKSSSTAYMQLSSLTSEDSAVYFCARSDITRAFFAYWGQGTLVTVSA VL: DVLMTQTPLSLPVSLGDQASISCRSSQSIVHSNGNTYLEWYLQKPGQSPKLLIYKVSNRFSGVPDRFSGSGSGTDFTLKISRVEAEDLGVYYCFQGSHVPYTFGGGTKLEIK = 47200
• 47G1B10 (antibody, V domains shown, Tested as chimeric antibody) VH: QVQLKQSGPGLVQPSQSLSITCTVSGFSLTTYGVHWVRQSPGKGLEWLGVIWTGGTTDYNAAFISRLSISKDNSKSQVFFKMNSLQANDTAIYYCARGPSSYWGQGTLVTVSA VL: DIVMTQSQKFMSTSVGDRVSVTCKASQNVDTNVVWYQQKPGQSPKALIHSASYRYSGVPDRFTGSGSGTDFTLTISNVQSEDLAEYFCQQYNNYPWTFGGGTKLEIK = 191000
• 282G5A2 (antibody, V domains shown, Tested as chimeric antibody) VH: QVQLQQSGAELVRPGTSVKVSCKASGYALTKYLIEWIKQRPGQGLEWIGVINPGNAGNNYNEKFKGKATLTVDQSSSTAYMQLSSLTSEDSAVYFCARRGRDYAMDNWGQGTSVTVSS VL: EIVLTQSPAIMSASLGEKVTMSCRASSSINYIYWYQQKSDASPKLWIYYTSNLAPGVPARFSGSGSGNSYSLTISSMEDEDAATYYCQQFTSSPLTFGAGTKLELK = 11300
